As shown below, each of these compounds has a reported melting point value.

compound: COCON1C(=O)C(c2c(F)ccc(C)c2Cl)=C(O)C12CCN(OC)CC2 [P2.60]
melting point: 155 to 158 °C

compound: CCOC(=O)OC1=C(c2c(F)ccc(C)c2Cl)C(=O)N(OCOC)C12CCN(OC)CC2 [P1.61]
melting point: 116 to 119 °C

compound: COCON1C(=O)C(c2c(C)cc(Cl)cc2C)=C(O)C12CCN(OC)CC2 [P2.104]
melting point: 176 to 178 °C

Query block: melting point for COCON1C(=O)C(c2cc(Br)c(F)cc2C)=C(O)C12CCN(OC)CC2 [P2.89] ?
Result block: 64 to 67 °C

Query block: Query CCOC(=O)OC1=C(c2c(C)cc(Cl)cc2C)C(=O)N(OC)C12CCN(OC)CC2 [P1.114] next
Result block: 122 to 125 °C

Query block: Query COCON1C(=O)C(c2cc(C)ccc2C)=C(OC(=O)CC(C)(C)C)C12CCN(OC)CC2 [P1.5] next
Result block: 93 to 95 °C

Query block: Query CON1CCC2(CC1)C(O)=C(c1c(C)cc(C)cc1C)C(=O)N2OCCOC1CCCCO1 (stereo not shown) [P2.22] next
Result block: 135 to 137 °C

Query block: Query COCON1C(=O)C(c2cc(C)ccc2C)=C(OC)C12CCN(OC)CC2 [P1.31] next
Result block: 91 to 93 °C

----------
test readout: melting point

compound: CON1CCC2(CC1)C(O)=C(c1c(C)cc(C)cc1C)C(=O)N2OCC1CCCCC1 [P2.96]
melting point: 169 to 172 °C
//
compound: COCCON1C(=O)C(c2cc(Br)c(C)cc2C)=C(O)C12CCN(OC)CC2 [P2.73]
melting point: 63 to 64 °C
//
compound: COCCON1C(=O)C(c2cc(Br)c(F)cc2C)=C(O)C12CCN(OC)CC2 [P2.87]
melting point: 71 to 74 °C
//
compound: COCCON1C(=O)C(c2c(C)cc(Cl)cc2C)=C(O)C12CCN(OC)CC2 [P2.101]
melting point: 161 to 164 °C
//
compound: CON1CCC2(CC1)C(O)=C(c1c(C)cc(Cl)cc1C)C(=O)N2OC [P2.102]
melting point: 88 to 92 °C
//
compound: CON1CCC2(CC1)C(O)=C(c1cc(Br)c(C)cc1C)C(=O)N2OC [P2.75]
melting point: 86 to 87 °C
//
compound: CON1CCC2(CC1)C(O)=C(c1c(C)cc(Cl)cc1C)C(=O)N2OC1CCCO1 (centres unmarked) [P2.105]
melting point: 137 to 139 °C

Now look at this one.
Query block: melting point for COCON1C(=O)C(c2c(C)cc(-c3ccc(Cl)cc3)cc2C)=C(O)C12CCN(OC)CC2 [P2.15] ?
Result block: 128 °C (dec.)
